Assay: In vivo biodistribution in mice
Set-up: species or system normal CD-1 male mice
Conditions: iv, 2 min
Measured Endpoint: bone to blood ratio

Compound: O=C([O-])CN(CCN(CC(=O)[O-])Cc1cc(CCC(=O)N[C@@H](CC(=O)O)C(=O)O)ccc1[O-])Cc1cc(CCC(=O)NC(P(=O)(O)O)P(=O)(O)O)ccc1[O-].[68Ga+3] [[^68Ga]1e]
Measured Endpoint: bone to blood ratio
Result: 1

Compound: O=C([O-])CN(CCN(CC(=O)[O-])Cc1cc(CCC(=O)NC(P(=O)(O)O)P(=O)(O)O)ccc1[O-])Cc1cc(CCC(=O)NC(P(=O)(O)O)P(=O)(O)O)ccc1[O-].[68Ga+3] [[^68Ga]2]
Measured Endpoint: bone to blood ratio
Result: 1.1

Compound: O=C([O-])CN(CCN(CC(=O)[O-])Cc1cc(CCC(=O)NC(P(=O)(O)O)P(=O)(O)O)ccc1[O-])Cc1cc(CCC(=O)NCCCNC(=O)CCc2ccc(O)c(CN(CCN(CC(=O)O)Cc3cc(CCC(=O)NC(P(=O)(O)O)P(=O)(O)O)ccc3O)CC(=O)O)c2)ccc1[O-].[68Ga+3] [[^68Ga]3]
Measured Endpoint: bone to blood ratio
Result: 0.5

Compound: [18F-].[Na+] [[^18F]NaF, reference compound]
Measured Endpoint: bone to blood ratio
Result: 1.9

Please examine the following record next.
The reported value for O=C([O-])CN(CCN(CC(=O)[O-])Cc1cc(CCC(=O)NC(P(=O)(O)O)P(=O)(O)O)ccc1[O-])Cc1cc(CCC(=O)NCCNC(=O)CN2CCN(CC(=O)O)CCN(CC(=O)O)CCN(CC(=O)O)CC2)ccc1[O-].[68Ga+3] [[^68Ga]1h] in terms of bone to blood ratio is 0.9

----------
Experiment: In vivo biodistribution in mice
Parameters: species or system normal CD-1 male mice
Conditions: iv, 2 min post injection
Each entry gets false if its Biodistribution: Skin stays under 3 % dose/g, and true if its Biodistribution: Skin is 3 % dose/g or above.

Sample answers from the record:
Compound: O=C([O-])CN(CCN(CC(=O)[O-])Cc1cc(CCC(=O)NC(P(=O)(O)O)P(=O)(O)O)ccc1[O-])Cc1cc(CCC(=O)NCC(=O)O)ccc1[O-].[68Ga+3] [[^68Ga]1c]
Label: false
--
Compound: O=C([O-])CN(CCN(CC(=O)[O-])Cc1cc(CCC(=O)N[C@@H](CCC(=O)O)C(=O)O)ccc1[O-])Cc1cc(CCC(=O)NC(P(=O)(O)O)P(=O)(O)O)ccc1[O-].[68Ga+3] [[^68Ga]1f]
Label: false
--
Compound: O=C([O-])CN(CCN(CC(=O)[O-])Cc1cc(CCC(=O)O)ccc1[O-])Cc1cc(CCC(=O)O)ccc1[O-].[68Ga+3] [[^68Ga]HBED-CC, reference compound]
Label: true
--
Compound: O=C([O-])CN(CCN(CC(=O)[O-])Cc1cc(CCC(=O)NC(P(=O)(O)O)P(=O)(O)O)ccc1[O-])Cc1cc(CCC(=O)NC(P(=O)(O)O)P(=O)(O)O)ccc1[O-].[68Ga+3] [[^68Ga]2]
Label: true
--
Compound: O=C([O-])CN(CCN(CC(=O)[O-])Cc1cc(CCC(=O)NC(P(=O)(O)O)P(=O)(O)O)ccc1[O-])Cc1cc(CCC(=O)NCCNC(=O)CN2CCN(CC(=O)O)CCN(CC(=O)O)CCN(CC(=O)O)CC2)ccc1[O-].[68Ga+3] [[^68Ga]1h]
Label: false
--
Compound: C[C@H](NC(=O)CCc1ccc([O-])c(CN(CCN(CC(=O)[O-])Cc2cc(CCC(=O)NC(P(=O)(O)O)P(=O)(O)O)ccc2[O-])CC(=O)[O-])c1)C(=O)O.[68Ga+3] [[^68Ga]1d]
Label: false
--
Compound: O=C([O-])CN(CCN(CC(=O)[O-])Cc1cc(CCC(=O)NC(P(=O)(O)O)P(=O)(O)O)ccc1[O-])Cc1cc(CCC(=O)NC2C(O)OC(CO)C(O)C2O)ccc1[O-].[68Ga+3] (stereo not shown) [[^68Ga]1b]
Label: false
--
Compound: O=C([O-])CN(CCN(CC(=O)[O-])Cc1cc(CCC(=O)N[C@@H](CC(=O)O)C(=O)O)ccc1[O-])Cc1cc(CCC(=O)NC(P(=O)(O)O)P(=O)(O)O)ccc1[O-].[68Ga+3] [[^68Ga]1e]
Label: false

Let's switch to this compound now.
Please check the record [18F-].[Na+] [[^18F]NaF, reference compound] and state if its Biodistribution: Skin is at or above 3 % dose/g.
false
